test: in vitro; conditions: mouse, liver microsomes
MEASURE NAME: microsomal CLint at 1 µM (µL/min/mg)
Your answer should be a plain number; it is taken to be in µL/min/mg.

microsomal CLint at 1 µM for CSc1ccccc1N1CCN(CCCc2c[nH]c3ccc(C#N)cc23)CC1 ? 208

Now consider CSc1ccccc1N1CCN(CCCCc2c[nH]c3ccc(F)cc23)CC1 and answer again. 156

Another molecule to look at: Fc1ccc(C2=CCN(CCCc3c[nH]c4ccc(F)cc34)CC2)c(-c2ccccc2)c1 202

Same question for CSc1ccccc1C1CCN(CCCc2c[nH]c3ccc(F)cc23)CC1 please. 62.3

Thanks! And CCSc1ccccc1N1CCN(CCCc2c[nH]c3ccc(F)cc23)CC1 ? 47.6

Okay, and CSc1ccccc1N1CCN(CCCCCc2c[nH]c3ccc(F)cc23)CC1 ? 83.2

---

assay: in vitro; settings: human, liver microsomes
MEASURE NAME: microsomal CLint at 1 µM (µL/min/mg)
Provide the reading as a plain figure in µL/min/mg.

Consider the compound shown here: COc1ccc2c(c1)[C@]13CCCC[C@@H]1[C@H](C2)N(C)CC3 [DEXTROMETHORPHAN] What is its recorded microsomal CLint at 1 µM? 28

Queued: CSc1ccccc1C1CCN(CCCc2c[nH]c3ccc(F)cc23)CC1 24.5

Now the compound Fc1ccc(C2=CCN(CCCc3c[nH]c4ccc(F)cc34)CC2)c(-c2ccccc2)c1 22.1

Another compound: CSc1ccccc1N1CCN(CCCCc2c[nH]c3ccc(F)cc23)CC1 27.8

Here is the next compound: CSc1ccccc1N1CCN(CCCc2c[nH]c3ccc(C#N)cc23)CC1 127

---

Assay system Voltage-gated inwardly rectifying potassium channel KCNH2 (Homo sapiens); read-out recorded as pIC50.
FYI, pIC50 means -log10 of a concentration in mol per litre.

# get_value(readout='pIC50', item= CCOc1ccccc1N1CCN(CCCc2c[nH]c3ccc(F)cc23)CC1 ) 6.80

Also, COc1ccccc1N1CCN(CCCc2c[nH]c3ccc(F)cc23)CC1 please. 6.51

Now the molecule Fc1ccc(C2CCN(CCCc3c[nH]c4ccc(F)cc34)CC2)c(-c2ccccc2)c1 6.80

// same read-out, input: OC(CCN1CCC(c2ccc(F)cc2-c2ccccc2)CC1)c1c[nH]c2ccc(F)cc12 (stereo not given) 6.28

Entry CSc1ccccc1N1CCN(CCCc2c[nH]c3ccc(F)cc23)CC1 please 6.41

---

target: 5-hydroxytryptamine receptor 7 (Homo sapiens, UniProt P34969)
Sequence (P34969 whole entry): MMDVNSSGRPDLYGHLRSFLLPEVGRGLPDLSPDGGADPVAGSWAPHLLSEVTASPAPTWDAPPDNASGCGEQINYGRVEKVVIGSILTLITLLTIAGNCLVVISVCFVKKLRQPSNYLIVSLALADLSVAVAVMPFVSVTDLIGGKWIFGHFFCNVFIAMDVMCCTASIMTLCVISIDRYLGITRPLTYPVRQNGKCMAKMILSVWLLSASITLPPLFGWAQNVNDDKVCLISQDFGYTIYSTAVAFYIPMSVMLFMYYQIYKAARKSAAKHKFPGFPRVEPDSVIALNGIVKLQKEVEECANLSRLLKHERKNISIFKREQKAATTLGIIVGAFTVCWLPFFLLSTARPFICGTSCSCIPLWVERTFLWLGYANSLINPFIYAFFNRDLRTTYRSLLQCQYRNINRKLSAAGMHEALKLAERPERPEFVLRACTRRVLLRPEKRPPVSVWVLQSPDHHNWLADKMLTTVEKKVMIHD
MEASURE NAME: Ki (nM)
Report the figure in nM without appending any unit label.

Would you kindly share the measured Ki for COc1ccccc1N1CCN(CCCCCC(=O)NC2CCCc3ccccc32)CC1 (stereo unspecified) ? 8.6

---

biological target: hERG (KCNH2) (Homo sapiens); test: in vitro; details: HEK293 cells that express hERG
Sequence (Q12809 whole entry): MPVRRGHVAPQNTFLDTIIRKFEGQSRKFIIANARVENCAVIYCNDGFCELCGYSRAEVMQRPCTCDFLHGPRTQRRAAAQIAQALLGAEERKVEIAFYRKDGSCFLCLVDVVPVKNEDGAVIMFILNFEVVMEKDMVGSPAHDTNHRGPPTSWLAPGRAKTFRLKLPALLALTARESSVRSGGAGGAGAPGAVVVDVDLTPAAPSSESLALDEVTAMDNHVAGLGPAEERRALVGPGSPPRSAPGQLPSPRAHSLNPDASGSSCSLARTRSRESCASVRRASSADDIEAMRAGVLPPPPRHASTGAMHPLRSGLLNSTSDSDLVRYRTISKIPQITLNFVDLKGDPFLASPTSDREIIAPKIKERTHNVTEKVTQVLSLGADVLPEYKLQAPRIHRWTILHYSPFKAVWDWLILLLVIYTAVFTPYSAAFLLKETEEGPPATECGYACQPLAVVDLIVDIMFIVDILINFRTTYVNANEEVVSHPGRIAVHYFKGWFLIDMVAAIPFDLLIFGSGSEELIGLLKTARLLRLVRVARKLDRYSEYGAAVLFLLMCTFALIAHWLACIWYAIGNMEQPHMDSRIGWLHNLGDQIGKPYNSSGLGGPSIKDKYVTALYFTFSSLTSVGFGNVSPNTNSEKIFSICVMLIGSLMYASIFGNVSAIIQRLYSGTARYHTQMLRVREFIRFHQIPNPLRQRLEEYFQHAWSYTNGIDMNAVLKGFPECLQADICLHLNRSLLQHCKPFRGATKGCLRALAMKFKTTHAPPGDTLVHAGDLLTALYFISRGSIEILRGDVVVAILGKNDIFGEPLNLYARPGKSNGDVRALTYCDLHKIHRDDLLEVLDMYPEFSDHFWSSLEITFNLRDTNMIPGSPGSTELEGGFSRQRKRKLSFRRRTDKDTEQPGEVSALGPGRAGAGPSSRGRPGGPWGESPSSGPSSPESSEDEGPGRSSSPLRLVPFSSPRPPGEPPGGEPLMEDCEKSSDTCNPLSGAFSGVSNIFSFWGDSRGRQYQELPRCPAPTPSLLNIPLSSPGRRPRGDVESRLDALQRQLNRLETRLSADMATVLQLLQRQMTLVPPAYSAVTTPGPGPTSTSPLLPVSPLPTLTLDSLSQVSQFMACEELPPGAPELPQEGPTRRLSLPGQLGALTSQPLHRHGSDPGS
Field: inhibition at 1 µM. Provide a value for each of the compounds that follow.
Report only the number, with the unit % understood.

Any idea what its inhibition at 1 µM is? The compound is Fc1ccc(C2=CCN(CCCc3c[nH]c4ccc(F)cc34)CC2)c(-c2ccccc2)c1 82.6

Item: CSc1ccccc1N1CCN(CCCCCc2c[nH]c3ccc(F)cc23)CC1 84.5

// query: CSc1ccccc1N1CCN(CCCc2c[nH]c3ccc(C#N)cc23)CC1 97.6

Please do the same for CSc1ccccc1N1CCN(CCCCc2c[nH]c3ccc(F)cc23)CC1 as well. 82.7

Another: CCSc1ccccc1N1CCN(CCCc2c[nH]c3ccc(F)cc23)CC1 90.1

How about this compound: CSc1ccccc1C1CCN(CCCc2c[nH]c3ccc(F)cc23)CC1 96.6

---

biological target: Sodium-dependent serotonin transporter (Homo sapiens)
Sequence (P31645 whole entry): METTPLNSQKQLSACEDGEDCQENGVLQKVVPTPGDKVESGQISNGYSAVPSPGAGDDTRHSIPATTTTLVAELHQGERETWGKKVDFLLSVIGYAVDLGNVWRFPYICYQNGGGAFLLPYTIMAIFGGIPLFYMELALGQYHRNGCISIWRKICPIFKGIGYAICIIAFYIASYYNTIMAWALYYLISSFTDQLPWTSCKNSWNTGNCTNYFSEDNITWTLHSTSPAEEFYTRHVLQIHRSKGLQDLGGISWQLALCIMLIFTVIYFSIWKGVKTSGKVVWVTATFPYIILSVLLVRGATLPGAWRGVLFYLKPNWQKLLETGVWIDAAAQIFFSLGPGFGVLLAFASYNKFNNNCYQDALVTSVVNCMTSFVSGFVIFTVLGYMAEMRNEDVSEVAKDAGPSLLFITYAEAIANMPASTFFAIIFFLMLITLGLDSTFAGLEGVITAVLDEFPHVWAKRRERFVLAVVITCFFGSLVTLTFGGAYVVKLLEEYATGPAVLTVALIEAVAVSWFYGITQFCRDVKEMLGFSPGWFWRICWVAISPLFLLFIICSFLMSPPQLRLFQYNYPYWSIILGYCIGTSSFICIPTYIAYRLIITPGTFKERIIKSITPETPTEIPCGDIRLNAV
MEASURE NAME: IC50 (nM)
Reply numerically in nM, unit not repeated.

Field request: IC50 | item: Fc1ccc(C2CCN(CCCc3c[nH]c4ccc(F)cc34)CC2)c(-c2ccccc2)c1 251

And what about the compound CCOc1ccccc1N1CCN(CCCc2c[nH]c3ccc(F)cc23)CC1 ? 0.85

Now consider CSc1ccccc1N1CCN(CCCc2c[nH]c3ccc(F)cc23)CC1 and answer again. 1.9

Next: COc1ccccc1N1CCN(CCCc2c[nH]c3ccc(F)cc23)CC1 0.85

---

experiment: in vitro; details: human, liver microsomes
MEASURE NAME: microsomal CLint at 1 µM (µL/min/mg)
# output: bare number, implied unit µL/min/mg

Would you mind telling me what microsomal CLint at 1 µM value was observed for CSc1ccccc1N1CCN(CCCCCc2c[nH]c3ccc(F)cc23)CC1 ? 90.1

And Fc1ccc(C2CCN(CCCc3c[nH]c4ccc(F)cc34)CC2)c(-c2ccccc2)c1 ? 27.8

For CCSc1ccccc1N1CCN(CCCc2c[nH]c3ccc(F)cc23)CC1 then? 39.5

---

Reported pKi values, 5-hydroxytryptamine receptor 1A (Homo sapiens).
# reply with the number alone; pKi is -log10 of concentration in mol/L

Request: pKi, test system 5-hydroxytryptamine receptor 1A (Homo sapiens), entry Fc1ccc(C2CCN(CCCc3c[nH]c4ccc(F)cc34)CC2)c(-c2ccccc2)c1 8.24

And then COc1ccccc1N1CCN(CCCCCC(=O)NC2CCCc3ccccc32)CC1 (configuration not stated) , what is it? 8.18
